Target: Sphingosine 1-phosphate receptor 4 (Homo sapiens)
Sequence (O95977 whole entry): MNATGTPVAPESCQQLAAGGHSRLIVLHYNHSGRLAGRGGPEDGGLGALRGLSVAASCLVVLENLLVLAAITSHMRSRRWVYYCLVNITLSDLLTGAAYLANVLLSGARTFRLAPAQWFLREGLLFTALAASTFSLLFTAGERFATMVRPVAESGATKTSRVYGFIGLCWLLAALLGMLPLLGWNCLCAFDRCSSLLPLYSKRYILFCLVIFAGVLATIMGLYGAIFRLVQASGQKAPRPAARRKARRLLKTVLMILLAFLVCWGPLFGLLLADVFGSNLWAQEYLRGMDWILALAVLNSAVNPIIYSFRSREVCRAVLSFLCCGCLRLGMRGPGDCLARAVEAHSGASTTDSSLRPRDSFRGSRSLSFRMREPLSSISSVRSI
Experiment: Concentration required for displacement of [33P]-labeled S1P from human sphingosine 1-phosphate receptor 4 expressed in CHO cells
parameter: IC50 (nM)

CCCCc1ccc(-c2nc(-c3ccc(CN4CC(C(=O)O)C4)cc3)no2)cc1: 350
CC(C)Cc1ccc(-c2nc(-c3ccc(CN4CC(C(=O)O)C4)cc3)no2)cc1: 70
CCC(C)(C)c1ccc(-c2nc(-c3ccc(CN4CC(C(=O)O)C4)cc3)no2)cc1: 75
CC(C)(C)c1ccc(-c2noc(-c3ccc(CN4CC(C(=O)O)C4)cc3)n2)cc1: 640
CC(C)Oc1ccc(-c2nc(-c3ccc(CN4CC(C(=O)O)C4)cc3)no2)cc1: 370
O=C(O)C1CN(Cc2ccc(-c3noc(-c4ccc(C5CCCC5)cc4)n3)cc2)C1: 49
O=C(O)C1CN(Cc2ccc(-c3noc(-c4ccc(-c5ccccc5)cc4)n3)cc2)C1: 240
CC(C)(C)c1ccc(-c2nnc(-c3ccc(CN4CC(C(=O)O)C4)cc3)o2)cc1: 4300
CC(C)(C)Cc1ccc(-c2nc(-c3ccc(CN4CC(C(=O)O)C4)cc3)no2)cc1: 90
CC(C)(C)c1ccc(-c2nc(-c3ccc(CN4CC(C(=O)O)C4)cc3)no2)cc1: 370
O=C(O)C1CN(Cc2ccc(-c3noc(-c4ccc([C@H]5CCC(F)(F)C5)cc4)n3)cc2)C1: 68
O=C(O)C1CN(Cc2ccc(-c3noc(-c4ccc(C5CCCCC5)cc4)n3)cc2)C1: 40
O=C(O)C1CN(Cc2ccc(-c3noc(-c4ccc([C@@H]5CCC(F)(F)C5)cc4)n3)cc2)C1: 89
O=C(O)C1CN(Cc2ccc(-c3noc(-c4ccc(CCC(F)(F)F)cc4)n3)cc2)C1: 430
O=C(O)C1CN(Cc2ccc(-c3noc(-c4ccc(C5CCC5)cc4)n3)cc2)C1: 520
CCCc1ccc(-c2nc(-c3ccc(CN4CC(C(=O)O)C4)cc3)no2)cc1: 150

====

Molecular target: Sphingosine 1-phosphate receptor 5 (Homo sapiens, UniProt Q9H228)
Sequence (Q9H228 whole entry): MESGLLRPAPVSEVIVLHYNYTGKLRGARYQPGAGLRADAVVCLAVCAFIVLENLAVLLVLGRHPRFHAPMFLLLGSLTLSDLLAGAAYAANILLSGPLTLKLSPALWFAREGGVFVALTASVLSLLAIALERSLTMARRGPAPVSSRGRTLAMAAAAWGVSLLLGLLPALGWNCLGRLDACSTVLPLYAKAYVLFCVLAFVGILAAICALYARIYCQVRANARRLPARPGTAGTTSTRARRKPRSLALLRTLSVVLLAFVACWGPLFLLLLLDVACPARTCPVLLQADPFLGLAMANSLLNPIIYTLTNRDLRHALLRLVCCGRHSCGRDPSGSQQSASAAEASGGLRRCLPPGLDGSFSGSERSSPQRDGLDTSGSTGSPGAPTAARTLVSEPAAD
Assay: Concentration required for displacement of [33P]-labeled S1P from human sphingosine 1-phosphate receptor 5 expressed in CHO cells
Rule: IC50 below 5 nM gives y. Equal to or above 5 nM gives n.

O=C(O)C1CN(Cc2ccc(-c3noc(-c4ccc(C5CCCC5)cc4)n3)cc2)C1: y
CCC(C)(C)c1ccc(-c2nc(-c3ccc(CN4CC(C(=O)O)C4)cc3)no2)cc1: y
CC(C)(C)c1ccc(-c2nnc(-c3ccc(CN4CC(C(=O)O)C4)cc3)o2)cc1: n
CCCc1ccc(-c2nc(-c3ccc(CN4CC(C(=O)O)C4)cc3)no2)cc1: y
O=C(O)C1CN(Cc2ccc(-c3noc(-c4ccc(C5CCC5)cc4)n3)cc2)C1: y
O=C(O)C1CN(Cc2ccc(-c3noc(-c4ccc(C5CC5)cc4)n3)cc2)C1: n
CC(C)(C)Cc1ccc(-c2nc(-c3ccc(CN4CC(C(=O)O)C4)cc3)no2)cc1: n
CC(C)(C)c1ccc(-c2nc(-c3ccc(CN4CC(C(=O)O)C4)cc3)no2)cc1: n
CCOc1ccc(-c2nc(-c3ccc(CN4CC(C(=O)O)C4)cc3)no2)cc1: n
CC(C)Cc1ccc(-c2nc(-c3ccc(CN4CC(C(=O)O)C4)cc3)no2)cc1: y
